method-summary: inhibition of NOD2-driven NF-kB reporter – cell-based, luminescence, uHTS, HEK293 (AID 1566)
condition-summary: HEK293 NOD2/NF-kB luciferase reporter, at 4 µM, active compounds read high
Hit rate of the full screen: of about 290,000 compounds, about 1,800 (0.62%) were called active. This is one part of a sample in which actives are shown more often than they occur.

| compound | inhibition / % |
| --- | --- |
| COCCN=C1NN=C(c2cc(C)n(CC3CCCO3)c2C)CS1 (centres undefined) | 19.4 |
| C=CCn1c(C)cc(C2=NNC(=NCc3ccccc3)SC2)c1C | -78 |
| CN1C(=O)C2(C(C#N)=C(N)N(c3ccc(Cl)cc3)C3=C2C(=O)CC(C)(C)C3)c2ccccc21 (centres undefined) | 5.6 |
| CCOC(=O)c1c(C)[nH]c(C)c1C(=O)CSc1nc2ccccc2c(=O)n1-c1ccc(F)cc1 | -3.4 |
| CN=c1scc(-c2cccs2)n1/N=C/c1ccc(O)c(O)c1O | -25.9 |
| CCOCC(=O)Nc1cccc(Br)c1 | -5.5 |
| CCOC(=O)c1cccc(NC(=O)c2cc3ccccc3o2)c1 | -97.4 |
| CCC(=O)C1CCCN(C(=O)c2ccc3nc(-c4cccc(OC)c4)oc3c2)C1 (centres undefined) | -51.5 |
| Cc1ccc(OCc2cc(C(=O)N3CCN(C)C[C@@H]3c3ccccc3)no2)cc1C | -27.5 |
| Cc1ccc(CCNC(=O)C23C[C@H]4C[C@@H](C2)CC(n2nnc(C)n2)(C4)C3)cc1 | 8.2 |
| Cc1ccc(S(=O)(=O)NCCNC(=O)c2ccccc2)cc1 | -8 |
| CCOC(=O)N1CCN(C(=O)c2ccccc2NC(=O)c2ccc(C(C)(C)C)cc2)CC1 | 4.9 |
| O=C(NCC1OCCc2ccccc21)c1ccc(NC(=O)c2cccc(Br)c2)cc1 (centres undefined) | 2.8 |
| O=S(=O)(Nc1ccc(N2CCOCC2)cc1)c1ccc(F)cc1F | -1.9 |
| CN=c1scc(-c2cccs2)n1/N=C/c1ccccc1O | 88.7 |
| Cc1occc1C(=O)n1nnc2ccccc21 | 7.3 |
| Cc1ccc(NC(=O)Nc2ccc(Cl)cc2)c(Br)c1 | -38.7 |
| CCOC(=O)c1c(C)[nH]c(C)c1C(=O)CSc1nc2ccccc2c(=O)n1-c1ccc(C)cc1 | -12.1 |
| COc1ccc(N2C(=O)NC3CC2(C)Oc2ccccc23)cc1 (centres undefined) | 15.5 |
| COc1ccc(N2C(=O)C3C4C=CC(c5ccccc5)(C3C2=O)C2C(=O)N(c3ccc(OC)cc3)C(=O)C42)cc1 (centres undefined) | 8 |
| O=C(Nc1cccc(C(F)(F)F)c1)C1CCN(S(=O)(=O)c2ccc(N3CCCC3=O)cc2)CC1 | 34.8 |
| C=CCSc1nc2ccccc2n1Cc1nnc(-c2cccs2)o1 | 8.9 |
| COCCn1c(C)cc(C2=NNC(=Nc3ccccc3F)SC2)c1C | 61.6 |
| COCCn1c(C)cc(C2=NNC(=NC(C)(C)C)SC2)c1C | 4.6 |
| COCCCN=C1NN=C(c2cc(C)n(Cc3ccccc3Cl)c2C)CS1 | -30.7 |
| CCN(CC(=O)Nc1c(F)cccc1F)C(=O)CCc1c[nH]c2ccccc12 | -24.9 |
| CC(C)N=c1scc(-c2cccs2)n1/N=C/c1ccc(O)c(O)c1O | -1.3 |
| O=C(NC1CCCCC1)C(c1ccc(F)cc1)N(Cc1cccs1)C(=O)CN1C(=O)c2ccccc2S1(=O)=O (centres undefined) | 13.4 |
| COc1ccc(S(=O)(=O)N2CCN(C3CCCC(C)C3)CC2)cc1 (centres undefined) | -12.3 |
| COc1ccc([N+](=O)[O-])c(S(=O)(=O)c2ccccc2)n1 | 29 |
| CN1C(=O)C2(C(C#N)=C(N)N(c3cc(Cl)cc(Cl)c3)C3=C2C(=O)CCC3)c2ccccc21 (centres undefined) | 53 |
| COc1nc(OC)nc(Oc2ccc(Cl)cc2[N+](=O)[O-])n1 | 10.1 |
| Fc1ccc2c(Cl)c(-c3nnc(-c4cccs4)o3)sc2c1 | -112 |
| Cc1ccc(C(=O)NS(=O)(=O)c2ccc(C)cc2)cc1 | -1.5 |
